Entry source: ChEMBL document CHEMBL1126910

TESTED_SYSTEM: Serotonin 2 (5-HT2) receptor (Rattus norvegicus, UniProt P30994+P08909+P14842)
ASSAY_NOTES: In vitro binding affinity on 5-hydroxytryptamine 2 receptor is inhibition of binding of [125I]- I-LSD to P11 cells
ASSAY_METRIC: Ki (nM)

Below: 2 compounds and their reported Ki.
COc1cc(N)c(Cl)cc1C(=O)NC1CCN(Cc2ccccc2)CC1 [CLEBOPRIDE]: 89
COc1cc(N)c(Cl)cc1C(=O)N[C@@H]1C[C@H]2CCC[C@@H](C1)N2Cc1ccc(F)cc1: 2200

P. COc1cc(Br)cc(C(=O)NC2CCN(Cc3ccc(F)cc3)CC2)c1OC
Q. COc1cc(Br)cc(C(=O)NC2CC3CCCC(C2)N3Cc2ccc(F)cc2)c1OC (configuration not stated)
R. COc1cc(N)c(Cl)cc1C(=O)NC1CCN(Cc2ccc(F)cc2)CC1
S. COc1cccc(C(=O)NC2CCN(Cc3ccc(F)cc3)CC2)c1OC
IN: # sort list by recorded Ki, greatest to least Please list the labels according to the requested order.
OUT: S, R, P, Q

* * *

TESTED_SYSTEM: D(3) dopamine receptor (Rattus norvegicus)
ASSAY_NOTES: In vitro binding affinity on D3 receptor is inhibition of binding of [125I]- NCQ 298 to Sf9 cells infected with recombinant baculovirus
pKi: −log10 of the molar value.
ASSAY_METRIC: pKi

a. COc1cccc(C(=O)NC2CCN(Cc3ccc(F)cc3)CC2)c1OC
b. CCN1CCC[C@H]1CNC(=O)c1c(O)c(I)cc(OC)c1OC [IOXIPRIDE]
IN: Could you tell me which of a and b has the lower pKi reading? Returns: label corresponding to the selected item.
OUT: a

* * *

TESTED_SYSTEM: Adrenergic receptor alpha-2 (Rattus norvegicus, UniProt P22086+P19328+P22909)
ASSAY_NOTES: In vitro binding affinity on alpha-2 receptor is inhibition of binding of [3H]- rauwolscine to rat cortex
ASSAY_METRIC: Ki (nM)

Use these answered entries as a reference point.
COc1cccc(C(=O)NC2CC3CCCC(C2)N3Cc2ccc(F)cc2)c1OC (stereo unspecified): 1300
COc1cccc(C(=O)NC2CCN(Cc3ccc(F)cc3)CC2)c1OC: 3000

I. COc1cc(Br)cc(C(=O)NC2CC3CCCC(C2)N3Cc2ccc(F)cc2)c1OC (stereo unspecified)
II. COc1cc(N)c(Cl)cc1C(=O)NC1CCN(Cc2ccc(F)cc2)CC1
III. COc1cc(Br)cc(C(=O)NC2CCN(Cc3ccc(F)cc3)CC2)c1OC
IV. COc1cc(N)c(Cl)cc1C(=O)NC1CCN(Cc2ccccc2)CC1 [CLEBOPRIDE]
IN: Ascending by Ki, please: list the compounds accordingly. List the labels, following the order given in the request.
OUT: IV, II, I, III
